The values you see were collected from the RNAGym collection of RNA variant scans (doi:10.1021/acssynbio.7b00057).

Quick reference: aptazyme ON/OFF ratio of the listed items.
B1: Pistol ribozyme (parent)
chain: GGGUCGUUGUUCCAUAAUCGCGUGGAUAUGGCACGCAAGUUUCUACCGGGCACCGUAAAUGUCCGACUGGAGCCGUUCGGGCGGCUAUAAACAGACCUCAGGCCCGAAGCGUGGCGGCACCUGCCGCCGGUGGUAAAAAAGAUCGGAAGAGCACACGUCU

- Variants of: B1
- assay.protocol: aptazyme ON/OFF ratio, guanine; higher = stronger switching; co-transcriptional cleavage with and without guanine
Please respond with just the number, no unit label.

Please review the following examples before continuing.
mutations	measurement.label	observed.result
U7C U8C G9C U10A C12G C13U	aptazyme ON/OFF ratio	1.1
U8A U10A U11G C12G	aptazyme ON/OFF ratio	1.36
U7C U8C G9C U10G U11C C12A C13G	aptazyme ON/OFF ratio	1.17

Task: Using the record for U7C U8G G9C U10G U11A C12A C13A , report its aptazyme ON/OFF ratio.
Output: 1.31

Task: Using the record for U7G U8G G9U U10C , report its aptazyme ON/OFF ratio.
Output: 1.51

Task: Using the record for U7C G9U U10G U11C C12A C13U , report its aptazyme ON/OFF ratio.
Output: 1.17

Task: Using the record for U7C G9A U11C C12U , report its aptazyme ON/OFF ratio.
Output: 1.17

Task: Using the record for U7C U8C G9A U10A C12A , report its aptazyme ON/OFF ratio.
Output: 1.44

Task: Using the record for U7C U8G U10C U11C , report its aptazyme ON/OFF ratio.
Output: 3.48

Task: Using the record for U7C U8G G9C C12G C13U , report its aptazyme ON/OFF ratio.
Output: 1.18

Task: Using the record for U7C U8C G9A U10A C12U C13A , report its aptazyme ON/OFF ratio.
Output: 1.14

Task: Using the record for U8C G9C U11A C12U , report its aptazyme ON/OFF ratio.
Output: 1.08

Task: Using the record for U10C C12U C13U , report its aptazyme ON/OFF ratio.
Output: 1.21

Task: Using the record for U7C U8A G9C U11G C12G C13U , report its aptazyme ON/OFF ratio.
Output: 1.05

Task: Using the record for U8G G9C U10G U11A C13U , report its aptazyme ON/OFF ratio.
Output: 1.06

Task: Using the record for U7C U8C G9A C12U C13U , report its aptazyme ON/OFF ratio.
Output: 1.26

Task: Using the record for U7C U8G G9U U11G C12G C13G , report its aptazyme ON/OFF ratio.
Output: 1.18
